meta.source: ChEMBL document CHEMBL1764999

Assay: Apparent permeability of the compound by PAMPA
Type: ADME
Settings: read-out: Papp
Square brackets hold non-standard residues; d marks the D form. Peptide text beside a SMILES is read from it. * marks the point of attachment. Phe(4-guanidino) = N=C(N)Nc1ccc(C[C@H](N)C(=O)O)cc1; Bip = N[C@@H](Cc1ccc(-c2ccccc2)cc1)C(=O)O; NHBn = c1ccc(CN*)cc1
parameterMeasured: Papp (×10⁻⁶ cm/s)
// note: answer is a bare numeric in ×10⁻⁶ cm/s

Record excerpt, results attached:
[[record]]
compound = "COCCc1ccc(OCC(O)CNC(C)C)cc1 (stereo not drawn)"
quantitativeresult = 3.23

[[record]]
compound = "N=C(N)NCCC[C@H](N)C(=O)N[C@@H](Cc1ccc(NC(=N)N)cc1)C(=O)N[C@@H](Cc1c[nH]c2ccccc12)C(=O)NCc1ccccc1 (H-Arg-[Phe(4-guanidino)]-Trp-NHBn)"
quantitativeresult = 0.38

[[record]]
compound = "N=C(N)NCCC[C@H](NC(=O)[C@H](Cc1ccc(-c2ccccc2)cc1)NC(=O)[C@@H](N)CCCNC(=N)N)C(=O)NCc1ccccc1 (H-Arg-[Bip]-Arg-NHBn)"
quantitativeresult = 0.01

[[record]]
compound = "N=C(N)Nc1ccc(C[C@H](NC(=O)[C@H](Cc2ccc(-c3ccccc3)cc2)NC(=O)[C@@H](N)Cc2ccc(NC(=N)N)cc2)C(=O)NCc2ccccc2)cc1 (H-[Phe(4-guanidino)]-[Bip]-[Phe(4-guanidino)]-NHBn)"
quantitativeresult = 0.9

[[record]]
compound = "NC(=O)[C@H](CCCN=C(N)N)NC(=O)[C@H](Cc1c[nH]c2ccccc12)NC(=O)[C@@H](N)CCCN=C(N)N (H-Arg-Trp-Arg-NH2)"
quantitativeresult = 2.37

[[record]]
compound = "N=C(N)NCCC[C@H](NC(=O)[C@H](Cc1ccc(-c2ccccc2)cc1)NC(=O)[C@@H](N)CCCNC(=N)N)C(N)=O (H-Arg-[Bip]-Arg-NH2)"
quantitativeresult = 0.01

[[record]]
compound = "N=C(N)NCCC[C@H](NC(=O)[C@H](Cc1ccccc1)NC(=O)[C@@H](N)CCCNC(=N)N)C(=O)NCc1ccccc1 (H-Arg-Phe-Arg-NHBn)"
quantitativeresult = 2.31

[[record]]
compound = "COC(=O)[C@H](CCCN=C(N)N)NC(=O)[C@@H](N)Cc1ccc(-c2ccccc2)cc1 (H-[Bip]-Arg-OMe)"
quantitativeresult = 1.06


Query: Requested field: Papp. Item: N=C(N)NCCC[C@H](N)C(=O)N[C@@H](Cc1c[nH]c2ccccc12)C(=O)N[C@@H](Cc1ccc(NC(=N)N)cc1)C(=O)NCc1ccccc1 (H-Arg-Trp-[Phe(4-guanidino)]-NHBn)
Result: 0.47

Query: Requested field: Papp. Item: CC(C)(C)NCC(O)c1cc(O)cc(O)c1 (stereo not drawn)
Result: 0.4

Query: Requested field: Papp. Item: NCCCC[C@H](NC(=O)[C@H](Cc1ccc(-c2ccccc2)cc1)NC(=O)[C@@H](N)CCCCN)C(=O)NCc1ccccc1 (H-Lys-[Bip]-Lys-NHBn)
Result: 0.26

Query: Requested field: Papp. Item: CC(C)(C)c1cc(C(C)(C)C)c2[nH]c(C(C)(C)C)c(C[C@H](N)C(=O)N[C@@H](CCCNC(=N)N)C(=O)NCCc3ccccc3)c2c1
Result: 5.27
